# Tested on: MOLT-4 leukemia
# ASSAY_DETAILS: NCI-60 one-dose screen, 48 h (100 = growth as untreated, 0 = no growth, -100 = all killed)
# TEST_SETTINGS: 10 µM unless noted
About 83,000 compounds went through this panel and 20% of them were active in at least one assay; those are over-represented in the sample as a whole.
REPORTED_PROPERTY: growth (%)

MOLECULE: O=C(/C(=C(\C(=O)c1ccccc1)c1ccccc1)c1ccccc1)c1ccccc1
SYSTEM: MOLT-4 leukemia
MEASURED: -7.63
//
MOLECULE: COc1cc(/C=C/c2cc(/C=C/c3ccc(O)c(OC)c3)n(-c3ccc(Cl)cc3)c(=O)n2)ccc1O
SYSTEM: MOLT-4 leukemia
MEASURED: 43
//
MOLECULE: COc1ccc(C(=O)c2ccc(C)cc2)c(OC)c1OC
SYSTEM: MOLT-4 leukemia
MEASURED: 46.8
//
MOLECULE: O=C(N/N=C/c1ccccc1SSc1ccccc1/C=N/NC(=O)c1ccccc1)c1ccccc1
SYSTEM: MOLT-4 leukemia
MEASURED: 10.8
//
MOLECULE: Cc1cc(C)n(Cc2cc(C(C)(C)C)cc(C(C)(C)C)c2)c(=O)c1C#N
SYSTEM: MOLT-4 leukemia
MEASURED: 76.6
//
MOLECULE: C=C1C(=O)O[C@H]2[C@H]1CC/C(COC(=O)N[C@H](Cc1c[nH]c3ccccc13)C(=O)OC)=C\CC[C@@]1(C)O[C@@H]21
SYSTEM: MOLT-4 leukemia
MEASURED: 4.53
//
MOLECULE: Cn1nc(-c2ccccc2)c2c(-c3ccccc3)onc2c1=O
SYSTEM: MOLT-4 leukemia
MEASURED: 42.8
//
MOLECULE: CC(C)=CCC/C(C)=C/CC/C(C)=C/CSC[C@H](NC(=O)CCCCCN1CCN(C)CC1)C(=O)NC1CCCCCC1
SYSTEM: MOLT-4 leukemia
MEASURED: 38.4
//
MOLECULE: CC(CNc1nc(Nc2ccc(Cl)c(Cl)c2)nc(C(Cl)(Cl)Cl)n1)N(C)C (centres undefined)
SYSTEM: MOLT-4 leukemia
MEASURED: -49.4
//
MOLECULE: C/C(Cc1ccc(Cl)cc1)=C(/c1ccc(Cl)cc1)c1ccc(OCCN2CCCC2)cc1
SYSTEM: MOLT-4 leukemia
MEASURED: 59.7
//
MOLECULE: COC1=C(Br)C(=O)C(OC)=C(Br)C1=O
SYSTEM: MOLT-4 leukemia
MEASURED: 26.4
//
MOLECULE: C[C@]12CC[C@@H]3c4ccc(O)cc4CC[C@H]3[C@@H]1C[C@H](O)[C@@H]2O
SYSTEM: MOLT-4 leukemia
MEASURED: 109
//
MOLECULE: CC(=O)OC(C)COc1ccc(-c2ccccc2)cc1 (centres undefined)
SYSTEM: MOLT-4 leukemia
MEASURED: 100
//
MOLECULE: N#CC1=C(N)Oc2c(c(N)nn2-c2ccccc2)C1c1ccc(Cl)cc1 (centres undefined)
SYSTEM: MOLT-4 leukemia
MEASURED: 98.8
//
MOLECULE: Nc1c(C(=O)Nc2cccc3ccccc23)sc2nc3c(cc12)CCCC3
SYSTEM: MOLT-4 leukemia
MEASURED: 20.7
//
MOLECULE: NC(N)=N/N=C/c1ccc(-c2ccc(-c3ccc(Cl)cn3)s2)cc1
SYSTEM: MOLT-4 leukemia
MEASURED: 73.7
//
MOLECULE: Cc1nn2c(-c3nc4cc(Cl)c(Cl)cc4[nH]3)c(-c3ccc(F)cc3)nc2s1
SYSTEM: MOLT-4 leukemia
MEASURED: 76.3
//
MOLECULE: COC(=O)[C@]12CC[C@@H](C)[C@H](C)[C@@H]1C1=CC[C@@H]3[C@@]4(C)CC(=O)[C@H](OC(=O)c5ccco5)[C@@]5(C)COC(=C45)C[C@@]3(C)[C@]1(C)CC2
SYSTEM: MOLT-4 leukemia
MEASURED: 24.4
//
MOLECULE: O=[N+]([O-])c1cc(S(=O)(=O)c2ccc(F)c([N+](=O)[O-])c2)ccc1F
SYSTEM: MOLT-4 leukemia
MEASURED: 23.2
